# protocolDetails: Drug solubility in supernatant of reconstituted suspension after ultracentrifugation (HPLC)
# Format: physicochemical
# testParameters: LBI-0728 (Lot CRX001) reconstituted suspension (2 mg/mL Ixabepilone and 5 mg/mL Rapamycin), 87,000 rpm 1 hour, room temperature
solubility values by entry
// units = µg/mL; emit number, no label

molecule	endpointLabel	measuredNumber
C/C(=C\c1csc(C)n1)[C@@H]1C[C@@H]2O[C@]2(C)CCC[C@H](C)[C@H](O)[C@@H](C)C(=O)C(C)(C)[C@@H](O)CC(=O)N1 [Ixabepilone]	solubility	407

Measured solubility of CO[C@H]1C[C@@H]2CC[C@@H](C)[C@@](O)(O2)C(=O)C(=O)N2CCCC[C@H]2C(=O)O[C@H]([C@H](C)C[C@@H]2CC[C@@H](O)[C@H](OC)C2)CC(=O)[C@H](C)/C=C(\C)[C@@H](O)[C@@H](OC)C(=O)[C@H](C)C[C@H](C)/C=C/C=C/C=C/1C [Rapamycin] : 22

----------
# protocolDetails: Drug solubility in supernatant of reconstituted suspension after ultracentrifugation (HPLC)
# Format: physicochemical
# testParameters: LBI-0609 (Lot CEP002) reconstituted suspension (X mg/mL Everolimus and 5 mg/mL Paclitaxel), 87,000 rpm 1 hour, room temperature
endpointLabel: solubility (µg/mL)
Kindly provide the numeric value in µg/mL only, without the unit symbol.

Short answer for CO[C@H]1C[C@@H]2CC[C@@H](C)[C@@](O)(O2)C(=O)C(=O)N2CCCC[C@H]2C(=O)O[C@H]([C@H](C)C[C@@H]2CC[C@@H](OCCO)[C@H](OC)C2)CC(=O)[C@H](C)/C=C(\C)[C@@H](O)[C@@H](OC)C(=O)[C@H](C)C[C@H](C)/C=C/C=C/C=C/1C [Everolimus, 40-O-(2-Hydroxy)ethyl rapamycin] : solubility was 14

----------
# protocolDetails: Drug solubility in supernatant of reconstituted suspension after ultracentrifugation (HPLC)
# Assay type: physicochemical
# testParameters: LBI-1103 (Lot RAD002) reconstituted suspension (5 mg/mL Docetaxel; 5 mg/mL Rapamycin and 10 mg/mL 17-AAG), 87,000 rpm 1 hour, room temperature
# Description: The quantities of docetaxel, rapamycin and 17-AAG and human albumin in the supernatant were measured by high performance liquid chromatography (HPLC) and the results are summarized in Table 9. The quantities of ixabepilone and rapamycin in the supernatant were measured by high performance liquid chromatography (HPLC) and the results are summarized in Table 18.
endpointLabel: solubility (µg/mL)
A number alone suffices; assume µg/mL.

Please review the following examples before continuing.
compound	endpointLabel	measuredNumber
CC(=O)O[C@@]12CO[C@@H]1C[C@H](O)[C@@]1(C)C(=O)[C@H](O)C3=C(C)[C@@H](OC(=O)[C@H](O)[C@@H](NC(=O)OC(C)(C)C)c4ccccc4)C[C@@](O)([C@@H](OC(=O)c4ccccc4)[C@H]21)C3(C)C [Docetaxel]	solubility	114
CO[C@H]1C[C@@H]2CC[C@@H](C)[C@@](O)(O2)C(=O)C(=O)N2CCCC[C@H]2C(=O)O[C@H]([C@H](C)C[C@@H]2CC[C@@H](O)[C@H](OC)C2)CC(=O)[C@H](C)/C=C(\C)[C@@H](O)[C@@H](OC)C(=O)[C@H](C)C[C@H](C)/C=C/C=C/C=C/1C [Rapamycin]	solubility	19

Short answer for C=CCNC1=C2C[C@@H](C)C[C@H](OC)[C@H](O)[C@@H](C)/C=C(\C)[C@H](OC(N)=O)[C@@H](OC)/C=C\C=C(/C)C(=O)NC(=CC1=O)C2=O [Example 17AAG, 17-allylaminogeldanamycin] : solubility was 108

Reference source for all entries: patent US20220211630A1
